The reported measurements were obtained from patent US8906925B2.

Tested System: human dopamine D2L receptor (Homo sapiens)
Sequence (P14416 whole entry): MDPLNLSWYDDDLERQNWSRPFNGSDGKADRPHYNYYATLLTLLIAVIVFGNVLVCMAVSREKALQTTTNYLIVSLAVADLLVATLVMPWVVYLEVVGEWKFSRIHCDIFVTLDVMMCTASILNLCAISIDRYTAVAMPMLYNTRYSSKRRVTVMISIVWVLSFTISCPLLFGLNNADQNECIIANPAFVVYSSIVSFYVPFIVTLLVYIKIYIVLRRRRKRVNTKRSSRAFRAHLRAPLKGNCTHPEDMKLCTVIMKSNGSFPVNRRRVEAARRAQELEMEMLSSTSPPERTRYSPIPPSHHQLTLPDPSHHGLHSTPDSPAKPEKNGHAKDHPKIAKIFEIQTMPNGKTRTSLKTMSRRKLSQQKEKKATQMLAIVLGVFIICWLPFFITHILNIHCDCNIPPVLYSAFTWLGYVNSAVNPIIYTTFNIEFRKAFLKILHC
Assay Summary: Dopamine D2L radioligand binding ([3H]Spiperone)
Condition Notes: compound at 1 μM; […] [3H]Spiperone; read-out: Inhibition of ligand binding, Dopamine D2L (percent inhibition of specific binding)
Observed Property: inhibition at 1 µM

chem_smiles=CC(C)=C(Cn1c2c(c3cc(C)ccc31)CN(C)CC2)c1ccncc1 observed_property="inhibition at 1 µM" experimental_result=14%
chem_smiles=C=C(Cn1c2c(c3cc(C)ccc31)CN(C)CC2)c1cnccn1 observed_property="inhibition at 1 µM" experimental_result=27%
chem_smiles=C/C(=C\n1c2c(c3cc(C)ccc31)CN(C=O)CC2)c1ccncc1 observed_property="inhibition at 1 µM" experimental_result=55%
chem_smiles=C/C=C(\Cn1c2c(c3cc(Cl)ccc31)CN(C)CC2)c1ccncc1 observed_property="inhibition at 1 µM" experimental_result=36%
chem_smiles=Cc1ccc2c(c1)c1c(n2C#Cc2ccc(F)cc2)CCN(C)C1 observed_property="inhibition at 1 µM" experimental_result=89%

###

Tested System: human recombinant adrenergic α2A receptor (Homo sapiens)
Construct: expressed in transfected cells; host or cells: insect Sf9 cells
Sequence (P08913 whole entry): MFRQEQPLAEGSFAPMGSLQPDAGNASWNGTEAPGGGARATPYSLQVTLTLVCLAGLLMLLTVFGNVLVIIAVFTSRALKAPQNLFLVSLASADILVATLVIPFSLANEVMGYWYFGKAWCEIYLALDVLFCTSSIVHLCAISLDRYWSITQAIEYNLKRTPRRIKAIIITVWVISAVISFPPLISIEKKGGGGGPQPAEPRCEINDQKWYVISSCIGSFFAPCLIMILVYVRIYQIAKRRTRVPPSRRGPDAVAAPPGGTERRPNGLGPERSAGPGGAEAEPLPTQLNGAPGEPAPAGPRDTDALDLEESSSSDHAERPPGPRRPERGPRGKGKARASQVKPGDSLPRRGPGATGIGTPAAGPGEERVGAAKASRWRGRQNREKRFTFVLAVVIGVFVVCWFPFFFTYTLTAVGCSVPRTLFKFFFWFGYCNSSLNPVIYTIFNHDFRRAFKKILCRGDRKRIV
Assay Summary: Adrenergic α2A radioligand binding ([3H]MK-912)
Condition Notes: percent inhibition of specific binding; compound at 1 μM; read-out: Inhibition of ligand binding, Adrenergic α2A
Observed Property: inhibition at 1 µM (%)

compound="COc1ccc(C(C)(O)Cn2c3c(c4cc(C)ccc42)CN(C)CC3)cc1F (stereo not drawn)" experimental_result=94
compound="Cc1ccc2c(c1)c1c(n2CC(C)(O)c2ccncc2)CCN(C)C1 (stereo not drawn)" experimental_result=57
compound=C/C(=C\n1c2c(c3cc(Cl)ccc31)CN(C)CC2)c1ccccc1 experimental_result=93
compound="COc1ccc(C(C)(O)Cn2c3c(c4cc(Cl)ccc42)CN(C)CC3)cc1F (stereo not drawn)" experimental_result=83
compound=C=C(Cn1c2c(c3cc(C)ccc31)CN(C)CC2)c1ccc(F)cc1 experimental_result=97
compound=CN1CCc2c(c3cc(Cl)ccc3n2/C=C(/c2ccc(F)cc2)C2CC2)C1 experimental_result=99
compound=C/C(=C\n1c2c(c3cc(Cl)ccc31)CN(C)CC2)c1ccc(Cl)cc1 experimental_result=101
compound=C=C(Cn1c2c(c3cc(Cl)ccc31)CN(C)CC2)c1cccnc1 experimental_result=89
compound=Cc1ccc2c(c1)c1c(n2/C=C/c2ccc(C)nc2)CCN(C)C1 experimental_result=95

###

Tested System: human recombinant histamine H2 receptor (Homo sapiens, UniProt P25021)
Construct: expressed in transfected cells; host or cells: Chinese hamster ovary (CHO) K1 cells
Sequence (P25021 whole entry): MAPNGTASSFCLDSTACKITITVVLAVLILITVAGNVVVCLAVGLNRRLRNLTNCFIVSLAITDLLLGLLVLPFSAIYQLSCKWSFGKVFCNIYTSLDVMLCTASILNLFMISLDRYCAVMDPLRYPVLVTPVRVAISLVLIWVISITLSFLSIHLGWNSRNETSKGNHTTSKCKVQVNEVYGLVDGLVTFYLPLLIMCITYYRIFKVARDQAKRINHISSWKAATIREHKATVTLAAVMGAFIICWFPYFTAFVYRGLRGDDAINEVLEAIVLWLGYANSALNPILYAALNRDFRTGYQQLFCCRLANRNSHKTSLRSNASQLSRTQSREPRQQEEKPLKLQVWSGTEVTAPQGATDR
Assay Summary: Histamine H2 radioligand binding ([125I]Aminopotentidine)
Condition Notes: read-out: Histamine Binding (1 μM) H2, percent inhibition of specific binding, 1 μM
Observed Property: inhibition at 1 µM (%)

molecule=CN1CCc2c(c3cc(Cl)ccc3n2C/C=C/c2ccncc2)C1 experimental_result=22
molecule=C/C(=C\n1c2c(c3cc(Cl)ccc31)CN(C)CC2)c1ccc(F)c(F)c1 experimental_result=99
molecule=C/C(=C/n1c2c(c3cc(C)ccc31)CN(C)CC2)c1cc(F)c(F)cc1Cl experimental_result=99
molecule=C/C(=C\n1c2c(c3cccc(Cl)c31)CN(C)CC2)c1ccncc1 experimental_result=91
molecule=CN1CCc2c(c3cc(Cl)ccc3n2C#Cc2ccc(F)cc2)C1 experimental_result=91
molecule=Cc1ccc2c(c1)c1c(n2/C=C/c2ccc(C)nc2)CCN(C)C1 experimental_result=41
molecule=COc1ccc(/C(C)=C/n2c3c(c4cc(Cl)ccc42)CN(C)CC3)cc1F experimental_result=100
molecule=C/C(=C\n1c2c(c3cc(Cl)ccc31)CN(C)CC2)c1ccncc1 experimental_result=60
molecule="CN1CCc2c(c3ccc(Cl)cc3n2CC(C)(O)c2ccncc2)C1 (stereo not drawn)" experimental_result=57
molecule=Cc1ccc2c(c1)c1c(n2C#Cc2ccc(Cl)cc2)CCN(C)C1 experimental_result=97
molecule="CN1CCc2c(c3cc(Cl)ccc3n2CC(C)(O)c2cccnc2)C1 (stereo not drawn)" experimental_result=41
molecule=C/C(=C\n1c2c(c3cc(C)ccc31)CN(C)CC2)c1ccc(F)cc1 experimental_result=100
molecule="CN1CCc2c(c3cccc(Cl)c3n2CC(C)(O)c2ccncc2)C1 (stereo not drawn)" experimental_result=53
molecule=CCCC/C(=C\n1c2c(c3cc(Cl)ccc31)CN(C)CC2)c1ccc(F)cc1 experimental_result=102
molecule="Cc1ccc2c(c1)c1c(n2CC(O)c2ccncc2)CCN(C)C1 (stereo not drawn)" experimental_result=24
molecule=C/C(=C/n1c2c(c3cc(Cl)ccc31)CN(C)CC2)c1cc(F)c(F)cc1Cl experimental_result=99
molecule=C/C(=C\n1c2c(c3cc(Cl)ccc31)CN(C)CC2)c1cc(F)c(F)cc1Cl experimental_result=98
molecule=C=C(Cn1c2c(c3cc(C)ccc31)CN(C)CC2)c1ccc(O)cc1 experimental_result=93

###

Tested System: human recombinant serotonin (5-Hydroxytryptamine) 5-HT6 receptor (Homo sapiens, UniProt P50406)
Construct: expressed in transfected cells; host or cells: human HeLa cells
Sequence (P50406 whole entry): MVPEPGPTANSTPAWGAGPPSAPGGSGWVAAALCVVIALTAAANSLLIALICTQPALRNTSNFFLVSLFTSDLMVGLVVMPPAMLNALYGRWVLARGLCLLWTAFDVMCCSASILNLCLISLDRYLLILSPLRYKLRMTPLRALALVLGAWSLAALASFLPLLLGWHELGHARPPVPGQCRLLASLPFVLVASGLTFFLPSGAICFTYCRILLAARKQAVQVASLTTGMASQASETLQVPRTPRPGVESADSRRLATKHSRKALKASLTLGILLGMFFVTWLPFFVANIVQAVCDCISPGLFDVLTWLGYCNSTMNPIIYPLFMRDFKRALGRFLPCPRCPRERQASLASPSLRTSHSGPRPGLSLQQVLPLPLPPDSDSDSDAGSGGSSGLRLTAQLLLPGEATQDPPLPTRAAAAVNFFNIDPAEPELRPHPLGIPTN
Assay Summary: Serotonin 5-HT6 radioligand binding ([3H]LSD)
Condition Notes: compound at 0.1 μM; read-out: Inhibition of ligand binding, Serotonin 5-HT6 (percent inhibition of specific binding)
Observed Property: inhibition at 0.1 µM (%)

compound="C/C(=C\\n1c2c(c3cc(Cl)ccc31)CN(C)CC2)c1ccncc1 [Compound 90]" observed_property="inhibition at 0.1 µM" experimental_result=102
compound="CC(C)/C(=C/n1c2c(c3cc(Cl)ccc31)CN(C)CC2)c1ccncc1 [Compound 265]" observed_property="inhibition at 0.1 µM" experimental_result=97
compound="CN1CCc2c(c3cc(Cl)ccc3n2CC(C)(O)c2cnccn2)C1 (stereo not drawn) [Compound 199]" observed_property="inhibition at 0.1 µM" experimental_result=25
compound="C/C(=C\\n1c2c(c3cc(F)c(F)cc31)CN(C)CC2)c1ccc(C)nc1 [Compound 255]" observed_property="inhibition at 0.1 µM" experimental_result=4
compound="C/C(=C\\n1c2c(c3cccc(F)c31)CN(C)CC2)c1ccncc1 [Compound 223]" observed_property="inhibition at 0.1 µM" experimental_result=104
compound="C/C(=C\\n1c2c(c3cc(C)ccc31)CN(C)CC2)c1ccc(F)cc1 [Compound 87]" observed_property="inhibition at 0.1 µM" experimental_result=97
compound="Cc1ccc2c(c1)c1c(n2/C=C(\\c2ccncc2)C(C)C)CCN(C)C1 [Compound 264]" observed_property="inhibition at 0.1 µM" experimental_result=89
compound="CCc1ccc2c(c1)c1c(n2/C=C(\\C)c2ccncc2)CCN(C)C1 [Compound 270]" observed_property="inhibition at 0.1 µM" experimental_result=97
compound="CC/C(=C/n1c2c(c3cc(C)ccc31)CN(C)CC2)c1ccncc1 [Compound 281]" observed_property="inhibition at 0.1 µM" experimental_result=78
compound="C/C(=C\\n1c2c(c3cc(C(F)(F)F)ccc31)CN(C)CC2)c1ccncc1 [Compound 249]" observed_property="inhibition at 0.1 µM" experimental_result=98
compound="C/C(=C\\n1c2c(c3ccccc31)CN(C)CC2)c1ccc(C)nc1 [Compound 254]" observed_property="inhibition at 0.1 µM" experimental_result=15
compound="C/C(=C\\n1c2c(c3cc(C)ccc31)CN(C)C(C)C2)c1ccc(F)cc1 (stereo not drawn) [Compound 258]" observed_property="inhibition at 0.1 µM" experimental_result=81
compound="CCC(O)(Cn1c2c(c3cc(Cl)ccc31)CN(C)CC2)c1ccncc1 (stereo not drawn) [Compound 195]" observed_property="inhibition at 0.1 µM" experimental_result=32
compound="C/C(=C\\n1c2c(c3cc(C)ccc31)CN(C)CC2)c1ccncn1 [Compound 279]" observed_property="inhibition at 0.1 µM" experimental_result=90
compound="Cc1ccc2c(c1)c1c(n2CC(C)(O)c2cnccn2)CCN(C)C1 (stereo not drawn) [Compound 200]" observed_property="inhibition at 0.1 µM" experimental_result=20
compound="C/C(=C\\n1c2c(c3cc(Cl)ccc31)CN(C)C(C)C2)c1ccc(C)nc1 (stereo not drawn) [Compound 273]" observed_property="inhibition at 0.1 µM" experimental_result=46
compound="C/C(=C\\n1c2c(c3cc(C(C)C)ccc31)CN(C)CC2)c1ccncc1 [Compound 267]" observed_property="inhibition at 0.1 µM" experimental_result=87
compound="C/C(=C\\n1c2c(c3cc(Cl)ccc31)CN(C)C(C)C2)c1ccncc1 (stereo not drawn) [Compound 275]" observed_property="inhibition at 0.1 µM" experimental_result=101

###

Measured inhibition at 1 µM values are reported for all entries that follow.
Tested System: human recombinant serotonin (5-Hydroxytryptamine) 5-HT6 receptor (Homo sapiens, UniProt P50406)
Construct: expressed in transfected cells; host or cells: human HeLa cells
Assay Summary: Serotonin 5-HT6 radioligand binding ([3H]LSD)
Condition Notes: compound at 1 μM; read-out: Inhibition of ligand binding, Serotonin 5-HT6 (percent inhibition of specific binding)
Observed Property: inhibition at 1 µM (%)

compound=C/C(=C\n1c2c(c3cc(Cl)c(Cl)cc31)CN(C)CC2)c1ccncc1 experimental_result=107
compound=C/C(=C/n1c2c(c3cc(C)ccc31)CN(C)CC2)c1ccncc1 experimental_result=102
compound="Cc1ccc2c(c1)c1c(n2CC(C)(O)c2ccc(C)nc2)CCN(C)C1 (centres unmarked)" experimental_result=37
compound=C/C(=C\n1c2c(c3cc(C)ccc31)CN(C)CC2)c1cccc(F)c1 experimental_result=101
compound=Cc1ccc2c(c1)c1c(n2C/C(=C/C(=O)O)c2ccc(F)cc2)CCN(C)C1 experimental_result=32
compound=C/C(=C\n1c2c(c3c(Cl)c(Cl)ccc31)CN(C)CC2)c1ccc(F)cc1 experimental_result=103
compound="CN1CCc2c(c3cc(Cl)ccc3n2CC(O)(c2ccc(F)cc2)C2CC2)C1 (centres unmarked)" experimental_result=103
compound=C/C(=C\n1c2c(c3cc(F)ccc31)CN(C)CC2)c1ccncc1 experimental_result=104
